# assay target: CYP3A4 (Homo sapiens, UniProt P08684)
# Sequence (P08684 whole entry): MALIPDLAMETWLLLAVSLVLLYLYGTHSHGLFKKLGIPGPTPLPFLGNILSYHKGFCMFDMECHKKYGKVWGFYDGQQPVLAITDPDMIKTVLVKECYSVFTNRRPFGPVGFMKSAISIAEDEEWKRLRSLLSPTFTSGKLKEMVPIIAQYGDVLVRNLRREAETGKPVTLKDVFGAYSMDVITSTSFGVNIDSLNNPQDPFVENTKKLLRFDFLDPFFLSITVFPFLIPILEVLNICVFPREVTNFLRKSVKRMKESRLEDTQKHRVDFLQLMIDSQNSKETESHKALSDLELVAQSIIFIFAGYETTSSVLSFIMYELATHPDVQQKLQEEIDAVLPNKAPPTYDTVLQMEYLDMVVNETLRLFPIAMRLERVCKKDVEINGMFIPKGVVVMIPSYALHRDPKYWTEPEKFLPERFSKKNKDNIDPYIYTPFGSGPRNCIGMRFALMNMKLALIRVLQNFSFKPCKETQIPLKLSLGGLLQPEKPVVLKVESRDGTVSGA
# assay notes: Metabolic stability assessed as recombinant human CYP3A4-mediated drug degradation by measuring compound remaining incubated for 1 hr by MS analysis
# Type: ADME
# run parameters: read-out: Stability
Readings of remaining at 1 h for the listed compounds
Output spec: scalar in %, unitless text.

Examples with answers:
INSERT INTO results (compound, reported) VALUES
  ('CN(C)CCN1CCN(c2nc(-c3ccncc3)nc3c2CN(Cc2ccccc2)CC3)CC1', 21),
  ('Cc1ccc(NC(=O)C2(c3ccc4c(c3)OC(F)(F)O4)CC2)nc1-c1cccc(C(=O)O)c1', 95),
  ('COc1ccc(S(=O)(=O)N2CCN(C(C)c3nc(OC4CCCCC4)c4ccccc4n3)CC2)cc1 (stereo not given)', 13),
  ('COc1ccc(CN2CCc3nc(-c4ccccn4)nc(N4CCN(CCN(C)C)CC4)c3C2)cc1', 70),
  ('NC(=O)CN1CCN(c2nc(-c3ccccn3)nc3c2CN(Cc2ccccc2)CC3)CC1', 57);

Prompt: Dear colleague, I am looking for the recorded remaining at 1 h of the following compound: NC(=O)C1CCN(c2nc(-c3ccccn3)nc3c2CN(Cc2ccccc2)CC3)CC1
Response: 71

Prompt: Dear colleague, I am looking for the recorded remaining at 1 h of the following compound: CC(=O)NC1CCN(c2nc(-c3ccccn3)nc3c2CN(Cc2ccc(Cl)cc2)CC3)CC1
Response: 25

Prompt: Dear colleague, I am looking for the recorded remaining at 1 h of the following compound: CN(C)CCN1CCN(c2nc(-c3ccccn3)nc3c2CN(S(=O)(=O)c2ccccc2)CC3)CC1
Response: 84
